assay: MTT cell viability assay (cytotoxicity); assay type: cell-based, monkey; conditions: monkey, cytotoxicity towards COS A6 cells cultured in the absence of FCS, read-out: LD50 (the source's name)
quantity_measured: CC50

Worked examples, 3 compounds total:
compound="CC1=C(C(O)CO)c2cc3nc(cc4[nH]c(cc5[nH]c(cc1n2)c(C)c5CCC(=O)O)c(CCC(=O)O)c4C)C(C(O)CO)=C3C (stereo not shown)" quantity_measured=CC50 value_measured="250 µM"
compound="CC1=C(C(COC(=O)c2ccc(N(C)C)cc2)OC(=O)c2ccc(N(C)C)cc2)c2cc3nc(cc4[nH]c(cc5[nH]c(cc1n2)c(C)c5CCC(=O)O)c(CCC(=O)O)c4C)C(C(COC(=O)c1ccc(N(C)C)cc1)OC(=O)c1ccc(N(C)C)cc1)=C3C (stereo not shown)" quantity_measured=CC50 value_measured="> 250 µM"
compound="CC1=C(C(COC(=O)c2ccc3ccccc3c2)OC(=O)c2ccc3ccccc3c2)c2cc3nc(cc4[nH]c(cc5[nH]c(cc1n2)c(C)c5CCC(=O)O)c(CCC(=O)O)c4C)C(C(COC(=O)c1ccc2ccccc2c1)OC(=O)c1ccc2ccccc2c1)=C3C (stereo not shown)" quantity_measured=CC50 value_measured="250 µM"

Shift focus to the following entry.
Q) May I ask what CC50 has been recorded for CC1=C(C(COC(=O)c2ccccc2)OC(=O)c2ccccc2)c2cc3nc(cc4[nH]c(cc5[nH]c(cc1n2)c(C)c5CCC(=O)O)c(CCC(=O)O)c4C)C(C(COC(=O)c1ccccc1)OC(=O)c1ccccc1)=C3C (stereo not shown) ?
A) 250 µM
